- measurement.description: folding stability dG unfold from chymotrypsin proteolysis; higher = more stable
So basically: folding stability dG unfold at 0.4 kcal/mol or higher? That is label 1. Lower than 0.4 kcal/mol? That is label 0.

Reference set (5 entries):
residue.string	cat
SAGGSAIKPGDPYVRIKFRMGNEPMEFTIPAEKIKKITVDDPDDQVTIRFPGNGRKFPMKLEEVEISAGGSA [r15_495_TrROS]	label 0
SAGGSALPPHAVRVLVVTATDTDPGAAAARIAEEFRRKYPNTRVLTRPFDVPPGRPAVVAVVYVDESAGGSA [r15_916_TrMRF]	label 1
SAGGSAGGSDPEFELVRVEVFPFPTATLVRAVARFPPTDEYVEVELVHFPVPDRVLLRVRLLPSAGGSAGGS [r12_14_TrMRF]	label 1
AARSVDVEVEELSTVTPAGGRTRLLRVRAYVPETGRTAEVPYRAVLLPDGSERPFGTAEELADRIARLLVSS [r1_77_TrMRF]	label 0
SAGISIRFPGMQIEIDEIERDNNKVVIRVEVTMPAKNPNGQPQMMTHTMWIVIKIPPPPPPADPADAKKSAG [r5_70_TrROS]	label 1

Reported folding stability dG unfold reaches at least 0.4 kcal/mol for SPVVVTTSPGPDGGARVTIYFPKTGKPIEFDITDPDLVEESTSDPNTRVDIPEEVLRSLAPDLFTGFTTESA [r9_390_TrMRF] ? label 0

Same for SAGGSAGGSAGMEMKLRPEPVVEVTPTVTTEPDPSLGTTVTTTTYTFDNGEVKTETDTGGSAGGSAGGSAGG [r11_463_JUSTAS] label 0

Same for SMEVKIELTDEEIEAALEAGYEVEIEVRVVEVEYDEETDEVTVKVEVTITIRPVPPPPEVVVDEETGEILSA [r9_396_TrROS_Hall] label 0

Same for SPKELEFKHPDNGMEVKIRLDPNQGRIEIEVRPPNGPPVKMDMEVTDDRIKIDIYYPGGRPMMQLEFPLPSA [r9_665_TrROS] label 1

Same for SAKKPLYLIIVKIGPDGKEIVIVAESEEEARKAAEEELRKLFPDLEIKEIKIIPLEKVKTKEEALELLKSAG [r14_900_TrROS_Hall] label 1

Same for SAGGSAGGSSKTVPLKSEEEVKAVLEKLPPDAEYTVTDSEGKSKKVSPDEISFTPDPLTITVSSAGGSAGGS [r12_907_JUSTAS] label 0

Same for SAGGSAGGSAGGTAEEIKEAIEELGYKVEVEVTDDAVKIRLELPNGEKFEFEIPKEALESAGGSAGGSAGGS [r10_1029_TrMRF] label 1

###

- measurement.description: folding stability dG unfold from chymotrypsin proteolysis; higher = more stable
So basically: folding stability dG unfold at 1 kcal/mol or higher? That is 1.0. Lower than 1 kcal/mol? That is 0.0.

residue.string	cat
SAGGSAPDWKIVDIEPTDNSITITVEAPPGVRVMIFNPGNGKVQHRPFPPGDTITIPPRMYIMVWVSAGGSA [r15_418_TrROS]	1.0
SAGGSATVTVTLVVRDPATGELTTVTATVTLEAAPAPVSVSLSLSLSRDPNGNLSLSLSVSVTVEGSAGGSA [r2_326_TrROS_Hall]	1.0
SAGMKVIEIDVPVSKIEEVKEELEAEAKEKGLNIKFEKLEKLPGNKYKMIVTVTDPTSNEKTIYNINILSAG [r5_41_JUSTAS]	1.0
SAGGSKLPKNSKVLIIDLGAPKGIKPNDKVKIPKELIKKIKEKNPNVKFYKEYNIGNKTYIFIVIDSAGGSA [r2_383_TrMRF]	1.0
SAGGSAGGSPDVVVPATLTFPLDAVAKAEFYPDGTVKVTFPDNTVALAKVEGGVVTDVRLAPASAGGSAGGS [r12_749_TrMRF]	0.0
SAGFTLKLEFPDSTVDVKVTKVDPKNNIIYAEALLPGGEKLTLTYNPETGEIEIEKKKLERTPDGGLEESAG [r14_466_JUSTAS]	1.0

Reported folding stability dG unfold reaches at least 1 kcal/mol for SAGGSAGGSAGGMTLEEVKKALEELGIKEENQTVTIELEDGSKVKITVKDGKVVLEVEPSAGGSAGGSAGGS [r10_604_TrROS_Hall] ? 1.0

Same for SAGGSFHDLAKELAKKRGLKKVSINMHPEDNSMNINIQNPEKGRPVQGNIPMEDMTPETVLDQIENILESAG [r5_896_TrROS] 0.0

Same for MKVVFTEEELPDAKVRKVFDPETGTITETVTYPSTSYTVTSTATITSFDPETGKVTITTTVSAPPEAGIPAS [r1_234_JUSTAS] 1.0

Same for NKAQKLARSLARKFMRPHGYPMEIDPENNSIRFPNGEPIMEIPIDIVLLDDDGKIVEEINIPIRIRMRPPKS [r1_318_TrROS] 0.0

Same for SAGGKKHYLVKVKATLTDKNGKKIAEVEFIFHFESPEELEEALKSIPSKYITEVKILSIEEIPEEEFSAGGS [r16_677_TrMRF] 1.0
